Taken from patent US20250215100A1.

Hi there, I'd appreciate the recorded Maximum MFI for every entry that follows.
- study-system: T1, human CD40 on cells (human, UniProt P25942 21-277)
- T1 construct: whole, on cells; The cell line used is named in each row's assay; also called hCD40; TNFRSF5
- T1 sequence (P25942 21-277): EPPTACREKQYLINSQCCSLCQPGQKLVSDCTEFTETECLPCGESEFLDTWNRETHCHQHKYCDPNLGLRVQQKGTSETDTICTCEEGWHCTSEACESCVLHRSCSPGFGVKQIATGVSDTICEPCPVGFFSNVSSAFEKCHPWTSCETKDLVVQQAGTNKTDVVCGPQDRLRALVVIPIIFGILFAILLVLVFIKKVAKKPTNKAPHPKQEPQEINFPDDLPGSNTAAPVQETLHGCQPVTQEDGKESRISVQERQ
- test: FACS, Raji cells
Units required after the number.

[in] Consider the binder PR006509 (antibody, human IgG1, kappa, V domains shown, PR003379 variant L:S93L; human IgG1 L234A, L235A, G237A) VH: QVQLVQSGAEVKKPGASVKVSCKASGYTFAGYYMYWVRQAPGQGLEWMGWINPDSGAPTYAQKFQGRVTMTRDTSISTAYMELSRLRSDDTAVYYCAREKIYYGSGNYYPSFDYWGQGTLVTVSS VL: DIQLTQSPSFLSASVGDRVTITCRASQGISSYLAWYQQKPGKAPKLLIYAASTLQSGVPSRFSGSGSGTEFTLTISSLQPEDFATYYCQQLNLYPWTFGQGTKVEIKR and give its measured Maximum MFI.
[out] 12200 MFI

[in] Follow-up item: PR006514 (antibody, human IgG1, kappa, V domains shown, PR003379 variant L:S93V; human IgG1 L234A, L235A, G237A) VH: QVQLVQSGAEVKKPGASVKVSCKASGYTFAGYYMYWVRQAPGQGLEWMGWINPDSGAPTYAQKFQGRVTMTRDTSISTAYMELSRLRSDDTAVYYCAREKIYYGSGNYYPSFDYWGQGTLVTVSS VL: DIQLTQSPSFLSASVGDRVTITCRASQGISSYLAWYQQKPGKAPKLLIYAASTLQSGVPSRFSGSGSGTEFTLTISSLQPEDFATYYCQQLNVYPWTFGQGTKVEIKR
[out] 12000 MFI

[in] Follow-up item: PR006506 (antibody, human IgG1, kappa, V domains shown, PR003379 variant L:S93F; human IgG1 L234A, L235A, G237A) VH: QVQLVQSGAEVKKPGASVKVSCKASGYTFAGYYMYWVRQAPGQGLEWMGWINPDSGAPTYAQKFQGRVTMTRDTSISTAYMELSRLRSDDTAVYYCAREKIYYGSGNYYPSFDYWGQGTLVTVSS VL: DIQLTQSPSFLSASVGDRVTITCRASQGISSYLAWYQQKPGKAPKLLIYAASTLQSGVPSRFSGSGSGTEFTLTISSLQPEDFATYYCQQLNFYPWTFGQGTKVEIKR
[out] 12100 MFI

[in] Follow-up item: PR006516 (antibody, human IgG1, kappa, V domains shown, PR003379 variant L:S93H; human IgG1 L234A, L235A, G237A) VH: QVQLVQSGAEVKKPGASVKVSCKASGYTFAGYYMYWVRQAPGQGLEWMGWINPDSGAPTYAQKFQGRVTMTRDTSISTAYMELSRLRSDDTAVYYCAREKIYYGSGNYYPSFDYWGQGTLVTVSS VL: DIQLTQSPSFLSASVGDRVTITCRASQGISSYLAWYQQKPGKAPKLLIYAASTLQSGVPSRFSGSGSGTEFTLTISSLQPEDFATYYCQQLNHYPWTFGQGTKVEIKR
[out] 8900 MFI

[in] Follow-up item: PR006494 (antibody, human IgG1, kappa, V domains shown, PR003379 variant L:N92T; human IgG1 L234A, L235A, G237A) VH: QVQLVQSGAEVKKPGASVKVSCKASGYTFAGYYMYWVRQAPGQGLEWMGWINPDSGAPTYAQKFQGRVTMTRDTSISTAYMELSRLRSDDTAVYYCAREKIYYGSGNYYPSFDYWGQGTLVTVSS VL: DIQLTQSPSFLSASVGDRVTITCRASQGISSYLAWYQQKPGKAPKLLIYAASTLQSGVPSRFSGSGSGTEFTLTISSLQPEDFATYYCQQLTSYPWTFGQGTKVEIKR
[out] 9180 MFI

[in] Follow-up item: PR006499 (antibody, human IgG1, kappa, V domains shown, PR003379 variant L:N92W; human IgG1 L234A, L235A, G237A) VH: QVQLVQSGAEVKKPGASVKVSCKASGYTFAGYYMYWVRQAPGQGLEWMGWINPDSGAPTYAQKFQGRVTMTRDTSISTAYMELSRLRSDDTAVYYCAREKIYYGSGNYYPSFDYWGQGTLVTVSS VL: DIQLTQSPSFLSASVGDRVTITCRASQGISSYLAWYQQKPGKAPKLLIYAASTLQSGVPSRFSGSGSGTEFTLTISSLQPEDFATYYCQQLWSYPWTFGQGTKVEIKR
[out] 8980 MFI

[in] Follow-up item: PR006515 (antibody, human IgG1, kappa, V domains shown, PR003379 variant L:S93M; human IgG1 L234A, L235A, G237A) VH: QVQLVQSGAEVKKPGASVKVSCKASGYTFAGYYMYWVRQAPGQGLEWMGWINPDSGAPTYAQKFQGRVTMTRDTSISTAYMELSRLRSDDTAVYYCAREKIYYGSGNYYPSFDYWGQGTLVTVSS VL: DIQLTQSPSFLSASVGDRVTITCRASQGISSYLAWYQQKPGKAPKLLIYAASTLQSGVPSRFSGSGSGTEFTLTISSLQPEDFATYYCQQLNMYPWTFGQGTKVEIKR
[out] 8900 MFI

[in] Follow-up item: PR006498 (antibody, human IgG1, kappa, V domains shown, PR003379 variant L:N92I; human IgG1 L234A, L235A, G237A) VH: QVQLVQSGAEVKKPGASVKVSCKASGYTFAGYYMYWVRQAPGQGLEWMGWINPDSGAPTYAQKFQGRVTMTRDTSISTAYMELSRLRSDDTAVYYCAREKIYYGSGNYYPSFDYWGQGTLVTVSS VL: DIQLTQSPSFLSASVGDRVTITCRASQGISSYLAWYQQKPGKAPKLLIYAASTLQSGVPSRFSGSGSGTEFTLTISSLQPEDFATYYCQQLISYPWTFGQGTKVEIKR
[out] 8980 MFI

[in] Follow-up item: PR006501 (antibody, human IgG1, kappa, V domains shown, PR003379 variant L:N92Q; human IgG1 L234A, L235A, G237A) VH: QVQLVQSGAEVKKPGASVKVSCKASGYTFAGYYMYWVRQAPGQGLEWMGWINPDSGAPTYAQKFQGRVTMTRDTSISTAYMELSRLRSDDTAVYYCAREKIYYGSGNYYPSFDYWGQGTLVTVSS VL: DIQLTQSPSFLSASVGDRVTITCRASQGISSYLAWYQQKPGKAPKLLIYAASTLQSGVPSRFSGSGSGTEFTLTISSLQPEDFATYYCQQLQSYPWTFGQGTKVEIKR
[out] 9000 MFI

[in] Follow-up item: PR006497 (antibody, human IgG1, kappa, V domains shown, PR003379 variant L:N92Y; human IgG1 L234A, L235A, G237A) VH: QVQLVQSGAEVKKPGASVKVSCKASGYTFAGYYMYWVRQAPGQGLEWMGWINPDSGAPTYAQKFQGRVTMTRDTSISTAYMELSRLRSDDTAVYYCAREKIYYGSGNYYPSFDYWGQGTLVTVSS VL: DIQLTQSPSFLSASVGDRVTITCRASQGISSYLAWYQQKPGKAPKLLIYAASTLQSGVPSRFSGSGSGTEFTLTISSLQPEDFATYYCQQLYSYPWTFGQGTKVEIKR
[out] 9200 MFI
